Numbers sourced from paper PMC11050532.

Molecular target: sEH (Homo sapiens, UniProt P34913)
Sequence (P34913 1-555): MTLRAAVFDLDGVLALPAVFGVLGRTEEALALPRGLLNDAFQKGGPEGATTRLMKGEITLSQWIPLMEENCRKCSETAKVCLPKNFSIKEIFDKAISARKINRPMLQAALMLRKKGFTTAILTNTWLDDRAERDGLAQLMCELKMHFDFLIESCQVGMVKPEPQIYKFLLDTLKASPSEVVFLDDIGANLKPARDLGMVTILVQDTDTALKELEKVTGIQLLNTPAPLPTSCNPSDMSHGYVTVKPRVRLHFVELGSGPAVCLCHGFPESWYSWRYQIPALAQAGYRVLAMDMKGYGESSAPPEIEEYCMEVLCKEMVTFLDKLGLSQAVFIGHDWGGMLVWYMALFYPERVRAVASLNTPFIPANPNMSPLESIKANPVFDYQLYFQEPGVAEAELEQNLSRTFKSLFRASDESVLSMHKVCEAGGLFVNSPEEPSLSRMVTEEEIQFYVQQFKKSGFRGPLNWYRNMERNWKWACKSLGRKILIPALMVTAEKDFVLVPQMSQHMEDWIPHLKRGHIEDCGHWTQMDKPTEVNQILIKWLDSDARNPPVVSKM
pKi: −log10 of the molar value.
readout_type: pKi

>>> quantitative_result("COc1cc(-c2oc3cc(O)cc(O)c3c(=O)c2OC2OC(CO)C(O)C(O)C2O)ccc1O (stereo not drawn) [Compound 5, isorhametin-3-O-glucoside]")
4.16
>>> quantitative_result("COc1c(O)cc2oc(-c3ccc(O)cc3)cc(=O)c2c1O [Compound 2, hispidulin]")
4.70
>>> quantitative_result("COc1ccc(-c2oc3cc(OC)c(OC)c(O)c3c(=O)c2O)cc1O [Compound 1, eupatin]")
4.36

* * *

target: sEH (Homo sapiens); construct: purchased Cayman Chemical 10011669; assay: sEH activity assay (PHOME fluorescence); format: biochemical; conditions: triplicate, six concentrations
readout_type: IC50 (µM)

>>> quantitative_result("COc1cc(-c2oc3cc(O)cc(O)c3c(=O)c2OC2OC(CO)C(O)C(O)C2O)ccc1O (stereo not drawn) [Compound 5, isorhametin-3-O-glucoside]")
62.8
>>> quantitative_result("COc1c(O)cc2oc(-c3ccc(O)c(O)c3)cc(=O)c2c1O")
40.9
>>> quantitative_result("COc1c(O)cc2oc(-c3ccc(O)cc3)cc(=O)c2c1O")
22.2
